measured-on: hFASN enzyme (full length) (Homo sapiens, UniProt P49327)
Construct: 10 μL hFASN enzyme (full length, 300 ng, purified in house); made in house
Sequence (P49327 whole entry): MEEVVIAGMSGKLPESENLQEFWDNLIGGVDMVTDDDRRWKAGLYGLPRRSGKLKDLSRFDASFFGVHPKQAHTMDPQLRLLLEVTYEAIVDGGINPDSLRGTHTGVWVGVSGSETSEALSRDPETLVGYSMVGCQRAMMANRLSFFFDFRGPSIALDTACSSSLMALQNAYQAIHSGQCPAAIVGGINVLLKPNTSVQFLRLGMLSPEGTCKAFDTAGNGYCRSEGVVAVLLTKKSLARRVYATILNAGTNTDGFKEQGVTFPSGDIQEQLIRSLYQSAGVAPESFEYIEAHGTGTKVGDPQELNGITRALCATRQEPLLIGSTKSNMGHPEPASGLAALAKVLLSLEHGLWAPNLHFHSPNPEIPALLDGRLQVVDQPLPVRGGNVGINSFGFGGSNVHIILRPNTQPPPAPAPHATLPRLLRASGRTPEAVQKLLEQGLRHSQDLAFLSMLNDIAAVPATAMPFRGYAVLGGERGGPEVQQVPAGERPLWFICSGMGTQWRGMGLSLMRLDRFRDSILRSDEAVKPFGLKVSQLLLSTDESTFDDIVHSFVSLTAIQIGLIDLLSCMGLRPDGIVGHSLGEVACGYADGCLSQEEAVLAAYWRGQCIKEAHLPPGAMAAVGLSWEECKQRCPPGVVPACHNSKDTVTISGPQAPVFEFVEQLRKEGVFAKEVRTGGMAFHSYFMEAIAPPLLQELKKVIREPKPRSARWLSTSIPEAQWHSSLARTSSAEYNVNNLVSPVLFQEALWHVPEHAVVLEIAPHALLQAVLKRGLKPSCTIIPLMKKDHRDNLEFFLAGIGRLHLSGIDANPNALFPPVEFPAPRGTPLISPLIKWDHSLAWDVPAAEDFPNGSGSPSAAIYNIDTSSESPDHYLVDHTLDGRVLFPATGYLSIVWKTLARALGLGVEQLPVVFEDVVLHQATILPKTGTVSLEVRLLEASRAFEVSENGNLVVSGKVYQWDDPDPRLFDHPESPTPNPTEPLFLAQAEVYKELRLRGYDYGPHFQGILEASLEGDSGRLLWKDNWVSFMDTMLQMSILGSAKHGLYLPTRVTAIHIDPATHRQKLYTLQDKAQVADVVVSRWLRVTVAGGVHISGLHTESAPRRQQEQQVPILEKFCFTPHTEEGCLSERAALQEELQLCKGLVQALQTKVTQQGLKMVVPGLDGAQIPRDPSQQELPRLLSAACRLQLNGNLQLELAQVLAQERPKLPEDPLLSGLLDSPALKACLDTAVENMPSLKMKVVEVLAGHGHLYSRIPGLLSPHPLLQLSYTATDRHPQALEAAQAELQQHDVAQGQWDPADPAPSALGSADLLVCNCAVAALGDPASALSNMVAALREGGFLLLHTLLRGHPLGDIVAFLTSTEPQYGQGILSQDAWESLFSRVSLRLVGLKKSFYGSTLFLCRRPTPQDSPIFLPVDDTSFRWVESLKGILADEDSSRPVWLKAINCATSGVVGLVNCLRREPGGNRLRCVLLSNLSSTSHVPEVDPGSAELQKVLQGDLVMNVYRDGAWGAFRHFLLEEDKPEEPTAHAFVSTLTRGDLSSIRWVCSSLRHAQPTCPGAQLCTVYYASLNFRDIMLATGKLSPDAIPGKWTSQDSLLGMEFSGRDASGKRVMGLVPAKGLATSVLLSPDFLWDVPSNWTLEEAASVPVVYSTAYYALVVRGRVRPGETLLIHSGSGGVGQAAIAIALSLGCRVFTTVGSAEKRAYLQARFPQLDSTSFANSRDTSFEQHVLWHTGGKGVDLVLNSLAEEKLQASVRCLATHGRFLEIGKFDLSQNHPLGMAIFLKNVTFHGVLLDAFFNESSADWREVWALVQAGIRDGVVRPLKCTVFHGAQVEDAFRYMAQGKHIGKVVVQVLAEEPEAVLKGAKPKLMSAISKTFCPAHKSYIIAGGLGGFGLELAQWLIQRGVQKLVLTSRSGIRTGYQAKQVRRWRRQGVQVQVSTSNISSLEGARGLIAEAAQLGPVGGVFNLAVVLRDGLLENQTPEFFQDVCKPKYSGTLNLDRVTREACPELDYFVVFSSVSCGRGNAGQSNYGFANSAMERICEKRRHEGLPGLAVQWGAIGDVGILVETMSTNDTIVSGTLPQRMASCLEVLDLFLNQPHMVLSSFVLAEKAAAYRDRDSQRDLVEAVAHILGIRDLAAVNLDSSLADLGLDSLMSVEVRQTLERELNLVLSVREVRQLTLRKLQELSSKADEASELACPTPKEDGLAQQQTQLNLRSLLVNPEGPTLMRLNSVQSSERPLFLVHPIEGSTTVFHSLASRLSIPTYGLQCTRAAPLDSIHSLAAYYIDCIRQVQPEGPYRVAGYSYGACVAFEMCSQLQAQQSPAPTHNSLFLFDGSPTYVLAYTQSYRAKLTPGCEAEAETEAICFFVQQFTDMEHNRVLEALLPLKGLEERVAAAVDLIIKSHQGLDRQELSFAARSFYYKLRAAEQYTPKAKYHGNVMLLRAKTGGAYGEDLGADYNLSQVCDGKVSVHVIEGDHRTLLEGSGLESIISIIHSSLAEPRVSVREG
measurement-notes: Fatty Acid Synthase (FASN) Inhibition Scintillation Proximity Assay
Type: biochemical
setup-conditions: read-out: FASN % Effect @1E−05M
metric-name: inhibition at 10 µM
Reply with the number and its unit after it.

Sample answers from the record:
q: Given Cc1ccc(C(=O)N2CCC(c3ccc(-c4cnn(C)c4)cc3)CC2)cc1NC(=O)c1ccc(N2CCN(C)CC2)nc1 , state its recorded inhibition at 10 µM.
a: 104%

q: So what's the measured inhibition at 10 µM for this one? Cc1ccc(C(=O)N2CCC(c3ccc(-c4cnn(C)c4)cc3)CC2)cc1NC(=O)C1CCN(C2CCCC2)C1 (stereo not shown)
a: 102%

q: Find the recorded inhibition at 10 µM belonging to Cc1ccc(C(=O)N2CCC(c3ccc(-c4cnn(C)c4)cn3)CC2)cc1NC(=O)c1ccc(NC(C)C)nc1 and report it.
a: 109%

q: For the compound shown here, Cc1ccc(C(=O)N2CCC(c3ccc(-c4cnn(C)c4)nc3)CC2)cc1NC(=O)c1ccc(Cl)nc1 , give the reported inhibition at 10 µM.
a: 93%

q: Returns the measured inhibition at 10 µM for the input compound. Input: Cc1ccc(C(=O)Nc2cc(C(=O)N3CCC(c4ccc(-c5cnn(C)c5)cc4)CC3)ccc2C)s1
a: 104%

q: Which inhibition at 10 µM reading was recorded for the compound CNc1ccc(C(=O)N2CCC(c3ccc(-c4cnn(C)c4)cc3)CC2)cc1NC(=O)c1ccc(NC(C)C)nc1 ?
a: 98%

---
q: For the compound CC(C)Nc1ccc(C(=O)Nc2cc(C(=O)N3CCC(c4ccc(-c5cnn(C)c5)cc4)CC3)ccc2N)cn1 , what inhibition at 10 µM is on record?
a: 74%

* * *

Tested on: A2780 ovarian cells
measurement-notes: A2780 Ovarian Cell Proliferation Assay in Lipid Reduced Medium, without Palmitate
Format: cell-based
setup-conditions: Homo sapiens, A2780; lipid reduced medium, without palmitate, 96 h, MTT; read-out: Proliferation A2780 w/o Palmitate pIC50 (converted)
metric-name: log10 IC50 (log10 of the value in µM)
Heads up: the numbers are on a log10 scale; they represent IC50 in µM.

Use the examples below as a reference point.
q: Quick one: log10 IC50 for CC(C)Nc1ccc(C(=O)Nc2cc(C(=O)N3CCC(c4ccc(-c5cnn(C)c5)cc4)CC3)ccc2N)cn1 ?
a: -1.23

q: Please report the recorded log10 IC50 for Cc1ccc(C(=O)N2CC(c3ccc(-c4ccnn4C)cc3)C2)cc1NC(=O)c1ccc(NC2CCC2)nc1 .
a: -1.13

q: Give its log10 IC50 value. Item: Cc1ccc(C(=O)N2CCC(c3ccc(-c4cnn(C)c4)cc3)C2)cc1NC(=O)c1ccc(NC(C)C)nc1 (stereo not shown)
a: -0.78

q: Could you share which log10 IC50 value was measured for Cc1ccc(C(=O)N2CC(c3ccc(-c4cnn(C)c4)cc3)C2)cc1NC(=O)c1cnc(Cl)nc1 ?
a: 0.13

q: Name the recorded log10 IC50 for Cc1ccc(C(=O)N2CCC(c3ccc(-c4cnn(C)c4)cc3)CC2)cc1NC(=O)C1CCOCC1 .
a: -1.15

More entries:
q: Give its log10 IC50 value. Item: Cc1ccc(C(=O)N2CCC(c3ccc(-c4cnn(C)c4)cc3)CC2)cc1NC(=O)c1ccccc1F
a: -0.86
